The reported measurements were obtained from paper PMC3218832.

Target: RELA (p65) subunit of heterodimer;p50 subunit (Homo sapiens;Homo sapiens, UniProt Q04206;P19838 1-307;7-356)
Sequence (Q04206 1-307, chain 1 of 2): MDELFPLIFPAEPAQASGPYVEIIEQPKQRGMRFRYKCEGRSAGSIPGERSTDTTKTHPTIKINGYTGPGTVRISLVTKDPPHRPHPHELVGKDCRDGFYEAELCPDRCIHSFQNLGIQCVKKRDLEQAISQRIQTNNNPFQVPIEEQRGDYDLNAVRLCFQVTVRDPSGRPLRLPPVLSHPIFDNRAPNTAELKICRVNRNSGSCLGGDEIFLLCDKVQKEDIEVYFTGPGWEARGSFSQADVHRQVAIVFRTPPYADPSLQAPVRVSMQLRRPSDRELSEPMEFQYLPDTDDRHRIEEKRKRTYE
Sequence (P19838 7-356, chain 2 of 2): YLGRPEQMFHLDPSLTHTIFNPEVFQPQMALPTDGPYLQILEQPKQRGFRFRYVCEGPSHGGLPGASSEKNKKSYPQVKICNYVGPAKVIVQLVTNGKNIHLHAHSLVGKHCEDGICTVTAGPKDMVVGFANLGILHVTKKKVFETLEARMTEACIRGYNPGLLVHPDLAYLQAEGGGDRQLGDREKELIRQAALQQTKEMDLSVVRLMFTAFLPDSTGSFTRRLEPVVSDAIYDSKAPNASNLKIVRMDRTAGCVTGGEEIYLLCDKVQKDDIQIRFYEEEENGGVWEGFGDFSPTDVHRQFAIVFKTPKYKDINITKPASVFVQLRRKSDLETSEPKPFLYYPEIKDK
Assay: protein binding microarray; high values mean tight binding
Conditions: dsDNA, one strand shown
We use 0.2 z-score as the dividing line for binding signal: on or above the line is YES, below is NO.

{"columns": ["Chain", "Answer Label"],
 "data": [
  ["CGGGTTACCCT", "NO"],
  ["CAATTATCCCC", "YES"],
  ["CGGAGGTTCCC", "YES"],
  ["CGAATACCCCT", "YES"],
  ["GAAGTGCTCCT", "NO"],
  ["AAGTACATCCC", "NO"],
  ["GAGTATCCCCT", "YES"],
  ["AAGTGATTCCT", "NO"],
  ["CAAGGAGCCCC", "NO"],
  ["AAAGGCACCCT", "NO"],
  ["GAGAACTTCCT", "NO"],
  ["AGGTGACTCCT", "NO"],
  ["GAGAATACCCC", "YES"],
  ["CAGAATACCCT", "YES"],
  ["GGATGAACCCT", "NO"],
  ["AAATATGTCCT", "NO"],
  ["AGGTGGTCCCT", "NO"],
  ["CAGTTGACCCT", "NO"],
  ["GAAAGACCCCC", "YES"],
  ["GGGAATCTCCT", "YES"],
  ["AGAAAACTCCC", "YES"],
  ["CAAGATCTCCT", "NO"],
  ["GGAGTAATCCC", "NO"],
  ["AGATAGTTCCC", "NO"],
  ["GGAATATCCCT", "YES"],
  ["CAGATCCCCCT", "YES"],
  ["GAATAGACCCT", "NO"],
  ["CGGTTTACCCC", "YES"],
  ["GAAGGCTCCCT", "NO"],
  ["GAAATTGCCCT", "NO"],
  ["CAAGTAATCCC", "NO"],
  ["AGATGGTCCCC", "NO"],
  ["CAGTACGCCCT", "NO"],
  ["GAAAGCTCCCC", "YES"],
  ["AGATTCCTCCC", "NO"],
  ["CAAAAGTTCCC", "YES"],
  ["GGATAGACCCC", "NO"],
  ["AGGATCTCCCC", "YES"],
  ["CGAAAGTTCCT", "NO"],
  ["CGAAGCATCCT", "NO"],
  ["AAGGAACCCCT", "YES"],
  ["GGATTCATCCT", "NO"]
]}

###

Molecular target: RELA (p65) subunit of heterodimer;p52 subunit (Homo sapiens;Homo sapiens, UniProt Q04206;Q00653 1-307;4-332)
Sequence (Q04206 1-307, chain 1 of 2): as the sequence (Q04206 1-307, chain 1 of 2) above
Sequence (Q00653 4-332, chain 2 of 2): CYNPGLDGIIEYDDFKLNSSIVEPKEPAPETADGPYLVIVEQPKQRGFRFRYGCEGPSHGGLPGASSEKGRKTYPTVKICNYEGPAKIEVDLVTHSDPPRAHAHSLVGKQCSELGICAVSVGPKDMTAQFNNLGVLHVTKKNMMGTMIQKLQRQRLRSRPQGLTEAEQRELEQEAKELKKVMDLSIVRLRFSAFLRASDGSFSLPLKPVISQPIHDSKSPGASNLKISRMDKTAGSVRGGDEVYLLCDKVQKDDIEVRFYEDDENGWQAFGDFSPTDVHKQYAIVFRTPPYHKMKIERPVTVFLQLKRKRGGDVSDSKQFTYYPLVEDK
Test: protein binding microarray; high values mean tight binding
Conditions: dsDNA, one strand shown
Please map values of binding signal to classes as shown: bottom end: < -0.6 z-score; midrange: ≥ -0.6 z-score and < 0.3 z-score; top end: ≥ 0.3 z-score

{"columns": ["Chain", "Answer Label"],
 "data": [
  ["AGAATAATCCT", "bottom end"],
  ["CGGAGAGTCCT", "bottom end"],
  ["AGAGAGGCCCC", "midrange"],
  ["CAGGTTTCCCT", "top end"],
  ["CAGAATCTCCC", "midrange"],
  ["CGGAATTTCCT", "top end"],
  ["AAGAGGCTCCC", "bottom end"],
  ["AGATACATCCC", "bottom end"],
  ["GAAGTGGCCCC", "midrange"],
  ["GGGGATTCCCT", "top end"],
  ["AAAAAGGTCCC", "midrange"],
  ["AAATTACTCCC", "midrange"],
  ["AAGGGAATCCC", "top end"],
  ["AGGTAGGTCCC", "midrange"],
  ["AAGAAATTCCC", "top end"],
  ["CGAAAGTTCCT", "bottom end"],
  ["CGGAGGTTCCC", "midrange"],
  ["CAATAAGTCCT", "bottom end"],
  ["AAGATTTCCCC", "top end"]
]}

###

Target: RELA (p65) subunit of heterodimer;p52 subunit (Homo sapiens;Homo sapiens, UniProt Q04206;Q00653 1-307;4-332)
Assay: protein binding microarray; high values mean tight binding
Settings: dsDNA, one strand shown
We use 0.2 z-score as the dividing line for binding signal: on or above the line is true, below is false.

{"columns": ["Chain", "Answer Label"],
 "data": [
  ["GGGTTGGTCCT", "false"],
  ["CAGGTGTTCCC", "false"],
  ["GGAATGGTCCT", "false"],
  ["GGAATGATCCC", "false"],
  ["AGAGAGGTCCT", "false"],
  ["CAATATTTCCC", "true"],
  ["AAAGTTGCCCC", "true"],
  ["CAAAAAGTCCC", "true"],
  ["GAGGTGACCCC", "false"],
  ["GGGTACCTCCC", "true"],
  ["AGAAGGGTCCC", "false"],
  ["GGATACCCCCC", "true"],
  ["GGAAAGTTCCC", "true"],
  ["CAAGATCTCCT", "false"],
  ["AAGTTATCCCC", "true"],
  ["AGATTCCTCCC", "false"],
  ["GAGTAGTCCCT", "true"],
  ["GAAAACGTCCT", "false"],
  ["CAAAGGGTCCC", "false"],
  ["CAGTGAGTCCC", "false"],
  ["AAGAGAGTCCT", "false"],
  ["CGATAAGCCCC", "true"],
  ["AAATGCCCCCC", "true"],
  ["AAAGTTACCCT", "true"],
  ["GGGGTACTCCT", "true"],
  ["AAGTGTGTCCT", "false"],
  ["CAGTGCATCCT", "false"],
  ["GGAATGCCCCC", "true"],
  ["AGGTACGCCCC", "true"],
  ["AAATTGTCCCT", "true"],
  ["GAGGAGCCCCC", "true"],
  ["GGAAGGGCCCC", "false"],
  ["AAATGGACCCC", "false"],
  ["AAATGTATCCT", "false"],
  ["AAGAATGTCCC", "true"],
  ["AGGTACATCCT", "false"],
  ["AAGGTACTCCC", "true"],
  ["GGATGTCCCCC", "true"],
  ["AGATAAGTCCC", "true"],
  ["GAGGGCCTCCT", "false"],
  ["CGAGGAATCCT", "false"],
  ["GAAAATATCCT", "false"],
  ["GAAATAGTCCC", "true"],
  ["CGGAACACCCT", "false"],
  ["AAGGATACCCC", "true"],
  ["CAAGGTACCCT", "false"],
  ["AGATGTTCCCT", "false"],
  ["CGGGGGTCCCT", "true"],
  ["GGAGACTTCCC", "false"],
  ["GAGTTGCCCCC", "true"],
  ["GAAAGCTCCCC", "true"],
  ["CAAAGGCTCCT", "false"],
  ["GAGGTTGCCCT", "false"],
  ["GAGTGCCCCCT", "true"],
  ["AAAGAGACCCT", "false"],
  ["CAAATGCCCCT", "true"],
  ["AGATATCTCCT", "false"],
  ["CAGTGACCCCT", "false"],
  ["GAATAGCTCCC", "false"],
  ["GGGTAGTTCCT", "true"],
  ["AGGAGGTCCCC", "true"],
  ["CGAAACCCCCT", "true"],
  ["GAGAGGGTCCC", "false"],
  ["GGATAAATCCC", "true"],
  ["AGAAGTCCCCC", "true"],
  ["CGATAGCTCCT", "false"],
  ["CAAGTTCCCCT", "true"],
  ["AAAGTCTCCCC", "true"],
  ["CAGGACACCCT", "false"],
  ["GAAAAGTCCCT", "true"],
  ["CAAAGCGTCCT", "false"],
  ["CAAGGGTCCCT", "false"],
  ["GGAGTCCTCCC", "false"],
  ["AAAAGGGCCCT", "false"],
  ["CAGATAGCCCT", "false"],
  ["AAAAGAATCCC", "true"],
  ["CAGTGGCTCCC", "false"],
  ["CGGGGCACCCC", "true"],
  ["CGGTAAACCCT", "false"],
  ["GGGATGGCCCC", "true"],
  ["AGGAGTGTCCC", "true"],
  ["CAGATCGTCCT", "false"],
  ["AGAGGTCTCCC", "false"],
  ["CAGAAGATCCT", "false"]
]}
